Target: UniProt:P51531
Sequence (P51531 whole entry): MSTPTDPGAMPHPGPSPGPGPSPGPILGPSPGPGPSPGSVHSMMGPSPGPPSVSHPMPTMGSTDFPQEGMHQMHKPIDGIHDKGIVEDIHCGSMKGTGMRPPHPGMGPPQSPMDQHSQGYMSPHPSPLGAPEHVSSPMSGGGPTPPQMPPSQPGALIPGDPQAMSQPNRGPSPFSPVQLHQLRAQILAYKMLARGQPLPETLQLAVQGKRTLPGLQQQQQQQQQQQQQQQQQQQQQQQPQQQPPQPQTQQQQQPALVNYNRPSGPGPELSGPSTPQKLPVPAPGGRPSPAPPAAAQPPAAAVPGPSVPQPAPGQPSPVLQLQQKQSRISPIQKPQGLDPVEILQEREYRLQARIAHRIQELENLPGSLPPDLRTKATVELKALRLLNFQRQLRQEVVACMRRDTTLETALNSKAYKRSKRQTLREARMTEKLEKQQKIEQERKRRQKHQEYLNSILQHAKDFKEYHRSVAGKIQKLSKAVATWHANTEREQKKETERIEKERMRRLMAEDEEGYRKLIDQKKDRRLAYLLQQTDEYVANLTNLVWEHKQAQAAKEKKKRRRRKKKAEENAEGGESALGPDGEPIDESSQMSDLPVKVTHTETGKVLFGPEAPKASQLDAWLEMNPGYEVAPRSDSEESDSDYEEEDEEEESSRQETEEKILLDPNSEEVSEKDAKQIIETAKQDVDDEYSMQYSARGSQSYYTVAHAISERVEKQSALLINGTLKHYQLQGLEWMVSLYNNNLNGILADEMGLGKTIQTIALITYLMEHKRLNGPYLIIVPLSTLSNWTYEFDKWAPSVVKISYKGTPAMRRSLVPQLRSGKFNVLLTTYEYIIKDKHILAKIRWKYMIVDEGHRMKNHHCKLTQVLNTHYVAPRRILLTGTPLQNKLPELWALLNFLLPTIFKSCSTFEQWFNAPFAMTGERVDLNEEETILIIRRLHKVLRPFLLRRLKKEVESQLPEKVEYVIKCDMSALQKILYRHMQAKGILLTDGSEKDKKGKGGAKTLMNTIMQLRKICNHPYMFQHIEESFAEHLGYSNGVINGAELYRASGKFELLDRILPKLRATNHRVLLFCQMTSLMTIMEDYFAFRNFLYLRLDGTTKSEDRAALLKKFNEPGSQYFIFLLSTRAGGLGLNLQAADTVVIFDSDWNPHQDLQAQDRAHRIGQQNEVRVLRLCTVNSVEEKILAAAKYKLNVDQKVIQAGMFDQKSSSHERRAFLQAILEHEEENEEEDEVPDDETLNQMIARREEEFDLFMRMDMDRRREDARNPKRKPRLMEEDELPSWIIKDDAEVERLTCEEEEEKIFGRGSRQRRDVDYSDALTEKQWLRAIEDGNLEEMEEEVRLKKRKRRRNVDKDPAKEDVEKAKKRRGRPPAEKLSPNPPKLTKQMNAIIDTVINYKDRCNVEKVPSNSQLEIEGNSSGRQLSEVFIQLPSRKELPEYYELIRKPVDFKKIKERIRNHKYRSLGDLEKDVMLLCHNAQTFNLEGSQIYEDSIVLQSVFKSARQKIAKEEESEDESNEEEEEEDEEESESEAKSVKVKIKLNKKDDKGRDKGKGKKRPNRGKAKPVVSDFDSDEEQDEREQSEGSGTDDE
Assay: ATPase catalytic activity assay of BRM (ADP-Glo)
Assay type: biochemical
Conditions: read-out: BRM IC50 (μM)*
experimental.endpoint: IC50

Here are 6 compounds together with their reported answers.
>  <compound>
C[C@@H]1CN(c2cccc(-c3csc(NC(=O)CNC(=O)c4cc(C(C)(C)C)ccn4)n3)c2)C[C@H](C)O1

>  <experimental.endpoint>
IC50

>  <result>
0.1 to 1 µM

$$$$
>  <compound>
C[C@@H]1CN(c2cccc(-c3csc(NC(=O)CNC(=O)c4ccc5c(c4)S(=O)(=O)CCC5)n3)c2)C[C@H](C)O1

>  <experimental.endpoint>
IC50

>  <result>
0.1 to 1 µM

$$$$
>  <compound>
C[C@@H]1CN(c2cccc(-c3csc(NC(=O)CNC(=O)c4ccc5c(c4)[C@@](C)(C#N)CCO5)n3)c2)C[C@H](C)O1

>  <experimental.endpoint>
IC50

>  <result>
1 to 5 µM

$$$$
>  <compound>
C[C@]1(CO)CCc2ccc(C(=O)NCC(=O)Nc3nc(-c4cccc(-c5cccnc5O)n4)cs3)cc21

>  <experimental.endpoint>
IC50

>  <result>
0.1 to 1 µM

$$$$
>  <compound>
CC(C(F)(F)F)S(=O)(=O)c1cccc(C(=O)NCC(=O)Nc2nc(-c3cccc(-c4ccncc4)c3)cs2)c1 (stereo not shown) [Compound 113]

>  <experimental.endpoint>
IC50

>  <result>
0.1 to 1 µM

$$$$
>  <compound>
COc1cccc(-c2csc(NC(=O)CNC(=O)c3ccc4c(c3)C(C)(O)COC4)n2)c1 (stereo not shown)

>  <experimental.endpoint>
IC50

>  <result>
0.1 to 1 µM

$$$$

Then there is this compound:
Ask: Consider the compound C[C@@]1(C#N)COCc2ccc(C(=O)NCC(=O)Nc3nc(-c4cccc([C@]56CCOC[C@H]5C6)n4)cs3)cc21 tested on UniProt:P51531; state its IC50.
Result: < 0.1 µM

* * *

Target: BRG-1 (Homo sapiens)
Sequence (P51532 whole entry): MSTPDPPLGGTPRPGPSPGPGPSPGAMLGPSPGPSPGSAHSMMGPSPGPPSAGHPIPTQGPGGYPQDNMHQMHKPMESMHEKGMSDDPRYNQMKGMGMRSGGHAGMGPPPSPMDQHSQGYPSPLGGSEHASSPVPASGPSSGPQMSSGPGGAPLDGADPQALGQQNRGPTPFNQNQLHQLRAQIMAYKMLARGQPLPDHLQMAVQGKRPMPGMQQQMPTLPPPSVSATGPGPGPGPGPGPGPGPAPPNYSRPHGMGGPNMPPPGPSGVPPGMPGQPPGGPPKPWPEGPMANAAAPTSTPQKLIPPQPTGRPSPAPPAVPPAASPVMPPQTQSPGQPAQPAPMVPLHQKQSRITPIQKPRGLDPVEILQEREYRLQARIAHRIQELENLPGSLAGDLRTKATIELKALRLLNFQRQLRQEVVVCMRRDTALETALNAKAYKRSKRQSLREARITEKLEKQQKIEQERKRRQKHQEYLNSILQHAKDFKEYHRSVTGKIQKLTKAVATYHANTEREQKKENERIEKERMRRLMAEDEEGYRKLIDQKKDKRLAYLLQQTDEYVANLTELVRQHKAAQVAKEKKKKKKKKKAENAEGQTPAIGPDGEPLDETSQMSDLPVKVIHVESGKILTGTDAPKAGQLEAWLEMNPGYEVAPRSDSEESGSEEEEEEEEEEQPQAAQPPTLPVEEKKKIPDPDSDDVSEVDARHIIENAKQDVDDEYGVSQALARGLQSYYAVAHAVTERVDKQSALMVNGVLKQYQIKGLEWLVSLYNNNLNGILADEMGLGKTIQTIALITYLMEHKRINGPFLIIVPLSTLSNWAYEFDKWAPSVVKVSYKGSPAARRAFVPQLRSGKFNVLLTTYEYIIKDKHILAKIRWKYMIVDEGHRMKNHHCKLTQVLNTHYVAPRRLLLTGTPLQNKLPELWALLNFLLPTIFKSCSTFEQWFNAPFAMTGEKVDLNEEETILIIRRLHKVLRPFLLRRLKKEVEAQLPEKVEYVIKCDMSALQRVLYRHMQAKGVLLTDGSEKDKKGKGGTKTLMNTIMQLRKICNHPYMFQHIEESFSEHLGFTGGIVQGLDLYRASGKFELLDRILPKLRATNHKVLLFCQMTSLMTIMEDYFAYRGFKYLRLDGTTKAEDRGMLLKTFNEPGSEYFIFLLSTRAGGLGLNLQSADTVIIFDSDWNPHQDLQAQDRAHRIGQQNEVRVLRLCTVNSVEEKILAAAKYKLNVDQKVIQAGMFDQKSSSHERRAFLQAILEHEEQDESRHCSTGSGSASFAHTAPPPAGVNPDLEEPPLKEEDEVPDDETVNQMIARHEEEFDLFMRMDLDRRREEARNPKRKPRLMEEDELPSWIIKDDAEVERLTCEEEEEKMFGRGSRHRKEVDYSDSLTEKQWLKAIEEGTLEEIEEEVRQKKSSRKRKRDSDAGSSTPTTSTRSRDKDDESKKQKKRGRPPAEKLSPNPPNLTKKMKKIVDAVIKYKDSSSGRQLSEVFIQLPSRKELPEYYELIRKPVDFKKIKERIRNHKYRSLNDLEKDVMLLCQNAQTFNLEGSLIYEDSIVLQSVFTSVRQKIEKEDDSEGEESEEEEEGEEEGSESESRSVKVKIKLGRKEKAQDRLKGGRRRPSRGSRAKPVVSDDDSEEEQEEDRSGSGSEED
Assay: ATPase catalytic activity assay of BRG-1 (ADP-Glo)
Format: biochemical
Conditions: ATPase catalytic activity, ADP-Glo, 30 nM BRG-1, 400 μM ATP; read-out: BRG1 IC50 (μM)*
Parameter IC50: see the listing below.

>  <compound>
CC1(C#N)CCOc2ccc(C(=O)NCC(=O)Nc3nc(-c4cccc(C5COC5)c4)cs3)cc21 (stereo in doubt)

>  <measurement.target>
BRG-1 (Homo sapiens)

>  <result>
0.1 to 1 µM

$$$$
>  <compound>
C[C@@H]1CN(c2cccc(-c3csc(NC(=O)[C@H](CO)NC(=O)c4ccnc(C(C)(C)C)c4)n3)c2)C[C@H](C)O1

>  <measurement.target>
BRG-1 (Homo sapiens)

>  <result>
1 to 5 µM

$$$$

Ask: Find the measured IC50 of C[C@H](NC(=O)c1ccc2c(c1)C(C)(CO)CC2)C(=O)Nc1nc(-c2cccc(N3CCC3)c2)cs1 (stereo in doubt) and report it.
Result: 0.1 to 1 µM

* * *

Parameter Emax: see the listing below.
Target: BRG-1 (Homo sapiens)
Experiment: ATPase catalytic activity assay of BRG-1 (ADP-Glo)
Type: biochemical
Settings: ATPase catalytic activity, ADP-Glo; read-out: BRG1 Max % Inhibition

>  <molecule>
C[C@@H]1CN(c2cccc(-c3csc(NC(=O)CNC(=O)c4ccc(Cl)c(C(C)(C)CO)c4)n3)n2)C[C@H](C)O1 [Compound 241]

>  <Emax>
> 90%

$$$$
>  <molecule>
C[C@@H]1CN(c2cccc(-c3csc(NC(=O)CNC(=O)c4cc(C(C)(C)C)ncc4F)n3)c2)C[C@H](C)O1 [Compound 383]

>  <Emax>
> 85%

$$$$
>  <molecule>
C[C@@]1(C#N)COCc2ccc(C(=O)NCC(=O)Nc3nc(-c4cccc(C5CCO5)c4)cs3)cc21 (some centres unmarked) [Compound 371]

>  <Emax>
> 95%

$$$$

Ask: Find the measured Emax of CC1COCc2ccc(C(=O)NCC(=O)Nc3nc(-c4cccc(N5C[C@@H](C)O[C@@H](C)C5)n4)cs3)cc21 (some centres unmarked) [Compound 346] and report it.
Result: > 95%

Ask: Find the measured Emax of CC(C)(CN)c1cccc(C(=O)NCC(=O)Nc2nc(-c3cccc(-c4ccnc(N)c4)c3)cs2)c1 [Compound 59] and report it.
Result: > 80%

Ask: Find the measured Emax of COc1cccc(-c2csc(NC(=O)CNC(=O)c3ccc4c(c3)[C@](C)(F)COC4)n2)c1 [Compound 312] and report it.
Result: > 95%

Ask: Find the measured Emax of CC1OCCc2cc(C(=O)NCC(=O)Nc3nc(-c4cccc(N5C[C@@H](C)O[C@@H](C)C5)n4)cs3)ccc21 (some centres unmarked) [Compound 271] and report it.
Result: > 85%

Ask: Find the measured Emax of O=C(CNC(=O)c1ccc2c(c1)[C@](F)(C(F)F)COC2)Nc1nc(-c2cc(F)cc(N3CCC3)c2)cs1 [Compound 276] and report it.
Result: > 95%

Values compiled from patent US12685735B2.
